The values you see were collected from paper PMC11219945.

tested on: γ-H2AX in HepG2 cells; experiment: γ-H2AX MS assay, dose-effect relationship in HepG2 cells; settings: human, 24 h
Where a name gives a salt, the structure may show the parent alone.
experimental_endpoint: maximum γ-H2AX value within the selected concentration range
# print the numeric value only

Value of maximum γ-H2AX value within the selected concentration range reported for the compound `C=C1C[C@@H]2[C@H](CC[C@]3(C)C(=O)CC[C@@H]23)[C@@]2(C)C=CC(=O)C=C12` is 3.1

Value of maximum γ-H2AX value within the selected concentration range reported for the compound `O=c1[nH]cc(F)c(=O)[nH]1` is 5.2

Value of maximum γ-H2AX value within the selected concentration range reported for the compound `COc1cccc2c1C(=O)c1c(O)c3c(c(O)c1C2=O)C[C@@](O)(C(C)=O)C[C@@H]3O[C@H]1C[C@H](N)[C@H](O)[C@H](C)O1` is 23

Value of maximum γ-H2AX value within the selected concentration range reported for the compound `CN(C)/N=N/c1[nH]cnc1C(N)=O` is 5.8

Value of maximum γ-H2AX value within the selected concentration range reported for the compound `CC[C@@]1(O)C(=O)OCc2c1cc1n(c2=O)Cc2cc3c(CN(C)C)c(O)ccc3nc2-1` is 18.4

Value of maximum γ-H2AX value within the selected concentration range reported for the compound COc1cc([C@@H]2c3cc4c(cc3[C@@H](O[C@@H]3O[C@@H]5CO[C@@H](c6cccs6)O[C@H]5[C@H](O)[C@H]3O)[C@H]3COC(=O)[C@H]23)OCO4)cc(OC)c1O [Teniposide] is 13.2

Value of maximum γ-H2AX value within the selected concentration range reported for the compound `Sc1ncnc2nc[nH]c12` is 5.82

Value of maximum γ-H2AX value within the selected concentration range reported for the compound `CCCCCCNC(=O)n1cc(F)c(=O)[nH]c1=O` is 6.3

Value of maximum γ-H2AX value within the selected concentration range reported for the compound `Nc1nc2nc[nH]c2c(=S)[nH]1` is 6.6

Value of maximum γ-H2AX value within the selected concentration range reported for the compound O=c1[nH]c(=O)n(C2CCCO2)cc1F (stereo not drawn) is 7.2

Value of maximum γ-H2AX value within the selected concentration range reported for the compound `N#Cc1ccc(C(c2ccc(C#N)cc2)n2cncn2)cc1` is 3.1

Value of maximum γ-H2AX value within the selected concentration range reported for the compound COc1cccc2c1C(=O)c1c(O)c3c(c(O)c1C2=O)C[C@@](O)(C(=O)CO)C[C@@H]3O[C@H]1C[C@H](N)[C@@H](O)[C@H](C)O1 [Epirubicin hydrochloride] is 18

Value of maximum γ-H2AX value within the selected concentration range reported for the compound CCC1(c2ccc(N)cc2)CCC(=O)NC1=O (stereo not drawn) [Aminoglutethimide] is 2.9

Value of maximum γ-H2AX value within the selected concentration range reported for the compound `CC[C@]1(O)C[C@H]2CN(CCc3c([nH]c4ccccc34)[C@@](C(=O)OC)(c3cc4c(cc3OC)N(C=O)[C@H]3[C@@](O)(C(=O)OC)[C@H](OC(C)=O)[C@]5(CC)C=CCN6CC[C@]43[C@@H]65)C2)C1` is 3

Value of maximum γ-H2AX value within the selected concentration range reported for the compound `CCC1=C[C@@H]2CN(C1)Cc1c([nH]c3ccccc13)[C@@](C(=O)OC)(c1cc3c(cc1OC)N(C)[C@H]1[C@@](O)(C(=O)OC)[C@H](OC(C)=O)[C@]4(CC)C=CCN5CC[C@]31[C@@H]54)C2` is 3.3

Value of maximum γ-H2AX value within the selected concentration range reported for the compound `CC/C(=C(\c1ccccc1)c1ccc(OCCN(C)C)cc1)c1ccccc1` is 3.1

Value of maximum γ-H2AX value within the selected concentration range reported for the compound `CC[C@@]1(O)C(=O)OCc2c1cc1n(c2=O)Cc2c-1nc1cc(F)c(C)c3c1c2[C@@H](N)CC3` is 19.2

Value of maximum γ-H2AX value within the selected concentration range reported for the compound `COc1cccc2c1C(=O)c1c(O)c3c(c(O)c1C2=O)C[C@@](O)(C(=O)CO)C[C@@H]3O[C@H]1C[C@H](N)[C@H](O)[C@H](C)O1` is 21

====

system: γ-H2AX in HepG2 cells; assay: γ-H2AX MS assay, dose-effect relationship in HepG2 cells; conditions: HepG2 cells, 24 h exposure
experimental_endpoint: γ-H2AX MEC/MS (minimum effective concentration)

Before answering, review these 5 worked examples.
{"molecule": "Cc1ncc(CNC(=O)N(CCCl)N=O)c(N)n1", "result": "↑(0.01) µM"}
{"molecule": "O=P1(N(CCCl)CCCl)NCCCO1 (stereo not shown) [Cyclophosphamide]", "result": "↑(1000) µM"}
{"molecule": "O=NN(CCCl)C(=O)NCCCl", "result": "↑(0.01) µM"}
{"molecule": "N.N.O=C([O-])C1(C(=O)[O-])CCC1.[Pt+2]", "result": "↑(100) µM"}
{"molecule": "O=P1(NCCCl)OCCCN1CCCl (stereo not shown) [Ifosfamide]", "result": "↑(1000) µM"}

Value of γ-H2AX MEC/MS (minimum effective concentration) reported for the molecule `O=C1[O][Pt]2([NH][C@@H]3CCCC[C@H]3[NH]2)[O]C1=O` is ↑(100) µM

Value of γ-H2AX MEC/MS (minimum effective concentration) reported for the molecule `COc1cccc2c1C(=O)c1c(O)c3c(c(O)c1C2=O)C[C@@](O)(C(=O)CO)C[C@@H]3O[C@H]1C[C@H](N)[C@H](O[C@@H]2CCCCO2)[C@H](C)O1` is ↑(0.01) µM

====

tested on: γ-H2AX in HepG2 cells; experiment: γ-H2AX time-effect relationship / DNA repair kinetics (k, t50) in HepG2 cells; format: cell-based, Human; details: 100 μM, 0.5–8 h time-dependent kinetics
experimental_endpoint: t50 (time required for γ-H2AX to drop to half of the maximum value)

Value of t50 (time required for γ-H2AX to drop to half of the maximum value) reported for the compound CC[C@@]1(O)C(=O)OCc2c1cc1n(c2=O)Cc2cc3c(CN(C)C)c(O)ccc3nc2-1 [Topotecan] is 3.545 h

Value of t50 (time required for γ-H2AX to drop to half of the maximum value) reported for the compound COc1cccc2c1C(=O)c1c(O)c3c(c(O)c1C2=O)C[C@@](O)(C(=O)CO)C[C@@H]3O[C@H]1C[C@H](N)[C@H](O)[C@H](C)O1 [Doxorubicin] is 4.269 h

Value of t50 (time required for γ-H2AX to drop to half of the maximum value) reported for the compound CC[C@@]1(O)C(=O)OCc2c1cc1n(c2=O)Cc2c-1nc1cc(F)c(C)c3c1c2[C@@H](N)CC3 [Exatecan] is 3.925 h

Value of t50 (time required for γ-H2AX to drop to half of the maximum value) reported for the compound O=NN(CCCl)C(=O)NCCCl [Carmustine] is 2.298 h

Value of t50 (time required for γ-H2AX to drop to half of the maximum value) reported for the compound Cc1ncc(CNC(=O)N(CCCl)N=O)c(N)n1 [Nimustine] is 2.465 h

Value of t50 (time required for γ-H2AX to drop to half of the maximum value) reported for the compound O=C1c2c(O)ccc(O)c2C(=O)c2c(NCCNCCO)ccc(NCCNCCO)c21 [Mitoxantrone] is 7.999 h

Value of t50 (time required for γ-H2AX to drop to half of the maximum value) reported for the compound COc1cccc2c1C(=O)c1c(O)c3c(c(O)c1C2=O)C[C@@](O)(C(C)=O)C[C@@H]3O[C@H]1C[C@H](N)[C@H](O)[C@H](C)O1 [Daunorubicin] is 3.344 h

Value of t50 (time required for γ-H2AX to drop to half of the maximum value) reported for the compound O=c1[nH]c(=O)n(C2CCCO2)cc1F (centres unmarked) [Tegafur] is 1.442 h
